Please respond with reported pKd for every item in the list.
Target: T1, recombinant human 4R0N tau (human, UniProt P10636 2-758)
T1 construct: also called recombinant 4R0N human tau; P10636-6
T1 sequence (P10636 other isoform, or with tags, fused parts or gaps limits assumed): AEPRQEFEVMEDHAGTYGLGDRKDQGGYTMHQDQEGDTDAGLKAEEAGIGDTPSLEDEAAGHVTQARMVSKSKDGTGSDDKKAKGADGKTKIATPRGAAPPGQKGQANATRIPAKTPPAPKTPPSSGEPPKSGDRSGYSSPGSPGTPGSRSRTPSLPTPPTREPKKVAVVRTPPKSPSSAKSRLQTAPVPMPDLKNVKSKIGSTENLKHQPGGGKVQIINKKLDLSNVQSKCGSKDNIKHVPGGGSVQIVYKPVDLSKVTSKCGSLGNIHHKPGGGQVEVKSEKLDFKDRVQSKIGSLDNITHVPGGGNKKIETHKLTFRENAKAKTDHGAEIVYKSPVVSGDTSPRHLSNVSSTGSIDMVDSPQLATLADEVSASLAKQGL
Test: SPR Biacore T200; antibody captured by anti-human Fc; tau as analyte; global 1:1 fit
Give bare numbers, as −log10 of the molar value.

Please report pKd for every entry that follows.
1. hu9F5VHv9/hu9F5VLv8_DIM20 (antibody, V domains shown) VH: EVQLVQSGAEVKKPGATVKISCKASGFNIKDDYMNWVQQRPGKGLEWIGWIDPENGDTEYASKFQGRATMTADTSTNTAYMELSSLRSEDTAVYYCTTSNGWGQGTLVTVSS VL: DIQMTQSPFSLPVTPGESASISCRSSKSLSHSNGITYLYWYQQKPGQSPQLLIYQISNGASGVPNRFSSSGSGTDFTLKISRVEAEDVGVYYCAQNIELPLTFGQGTKLEIK
2. hu9F5VHv10/hu9F5VLv9_DIM11 (antibody, V domains shown, also called H10L9-DIM11; H10L9DIM11) VH: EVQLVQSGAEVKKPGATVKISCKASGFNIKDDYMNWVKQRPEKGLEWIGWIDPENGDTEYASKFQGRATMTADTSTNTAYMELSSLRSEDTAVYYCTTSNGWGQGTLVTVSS VL: DIQMTQSPFSLPVTPGESASISCRSSKSLGHSNGITYLYWYGQKPGQSPQLLIYQGSNRASGVPDRFSSSGSGTDFTLKISRVEAEDVGVYYCAQNIELPLTFGQGTKLEIK

1: 7.91; 2: 9.79
